Origin of the recorded values: ChEMBL document CHEMBL1128920

target: Integrin alpha-IIb/beta-3 (Homo sapiens, UniProt P05106+P08514); experiment: Inhibition of biotinylated fibrinogen binding to alphaIIb-beta3 integrin; assay type: protein-complex assay
Sequence (P05106 27-788 limits assumed): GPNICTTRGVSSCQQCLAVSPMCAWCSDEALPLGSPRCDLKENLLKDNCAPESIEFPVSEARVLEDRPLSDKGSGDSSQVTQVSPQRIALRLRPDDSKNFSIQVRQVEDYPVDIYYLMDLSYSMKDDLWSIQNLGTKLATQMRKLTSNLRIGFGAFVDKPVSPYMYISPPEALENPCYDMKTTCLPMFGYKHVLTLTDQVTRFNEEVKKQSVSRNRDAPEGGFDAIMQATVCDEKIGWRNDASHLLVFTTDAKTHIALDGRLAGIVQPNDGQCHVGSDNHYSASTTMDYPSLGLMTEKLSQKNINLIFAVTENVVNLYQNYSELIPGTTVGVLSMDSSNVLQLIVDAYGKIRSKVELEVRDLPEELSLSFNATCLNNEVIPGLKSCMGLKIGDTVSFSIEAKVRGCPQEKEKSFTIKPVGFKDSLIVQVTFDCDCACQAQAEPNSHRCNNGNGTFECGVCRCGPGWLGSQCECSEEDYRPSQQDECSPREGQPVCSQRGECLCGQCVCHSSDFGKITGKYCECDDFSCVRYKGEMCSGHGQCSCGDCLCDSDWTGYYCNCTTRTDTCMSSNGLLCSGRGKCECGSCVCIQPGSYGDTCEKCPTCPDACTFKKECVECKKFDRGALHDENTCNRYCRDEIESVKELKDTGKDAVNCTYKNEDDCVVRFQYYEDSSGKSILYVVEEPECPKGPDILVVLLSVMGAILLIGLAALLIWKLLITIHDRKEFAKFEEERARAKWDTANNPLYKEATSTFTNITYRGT
Sequence (P08514 32-887 limits assumed): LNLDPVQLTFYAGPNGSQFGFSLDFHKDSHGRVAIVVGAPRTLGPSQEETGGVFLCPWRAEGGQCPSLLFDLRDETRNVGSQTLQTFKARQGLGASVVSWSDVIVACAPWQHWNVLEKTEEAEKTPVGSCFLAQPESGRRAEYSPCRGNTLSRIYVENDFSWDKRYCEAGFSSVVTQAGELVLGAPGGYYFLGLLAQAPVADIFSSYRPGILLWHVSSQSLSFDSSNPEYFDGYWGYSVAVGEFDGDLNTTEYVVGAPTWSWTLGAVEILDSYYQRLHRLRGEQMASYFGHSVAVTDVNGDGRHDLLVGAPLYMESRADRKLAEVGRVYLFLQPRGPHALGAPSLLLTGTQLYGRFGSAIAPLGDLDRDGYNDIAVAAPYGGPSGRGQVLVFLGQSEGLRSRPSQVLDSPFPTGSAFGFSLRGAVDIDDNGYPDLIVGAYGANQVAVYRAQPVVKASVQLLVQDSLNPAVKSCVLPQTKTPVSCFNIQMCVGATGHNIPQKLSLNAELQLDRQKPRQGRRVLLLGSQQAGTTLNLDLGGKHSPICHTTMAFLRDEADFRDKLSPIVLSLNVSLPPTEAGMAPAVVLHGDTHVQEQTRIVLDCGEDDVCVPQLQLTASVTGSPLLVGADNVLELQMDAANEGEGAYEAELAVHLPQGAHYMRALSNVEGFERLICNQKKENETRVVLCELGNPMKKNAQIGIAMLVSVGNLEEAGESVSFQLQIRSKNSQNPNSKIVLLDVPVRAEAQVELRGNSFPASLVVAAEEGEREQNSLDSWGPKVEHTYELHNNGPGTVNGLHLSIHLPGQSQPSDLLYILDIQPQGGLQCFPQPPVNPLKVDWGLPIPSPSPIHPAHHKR
Sequence (P08514 891-1039 limits assumed): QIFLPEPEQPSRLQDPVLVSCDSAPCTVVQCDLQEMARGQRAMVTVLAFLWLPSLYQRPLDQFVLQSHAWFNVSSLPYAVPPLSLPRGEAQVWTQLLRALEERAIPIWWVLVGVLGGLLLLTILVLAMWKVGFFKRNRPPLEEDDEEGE
experimental_readout: pIC50
Remember the convention: pIC50 equals -log10 of concentration in molar.

NCC1CCC(C(=O)NCC(=O)c2ccc(OCC(=O)O)c(OCC(=O)O)c2)CC1 (centres undefined) :: 6.14

We now examine a further molecule.
Give pIC50 for the following molecule: NC(N)=NCCC[C@H](N)C(=O)NCC(=O)N[C@@H](CC(=O)O)C(=O)O
7.12

###

molecular target: Integrin alpha-IIb/beta-3 (Homo sapiens, UniProt P05106+P08514); assay: Biotinylated fibrinogen binding to alpha IIb beta-3 integrin; assay type: protein-complex assay
experimental_readout: IC50 (nM)
Please reply with the bare figure in nM and do not write the unit itself.

Worked set:
O=C(O)COc1cnc(C(=O)CNC(=O)c2cc3c(s2)CCNC3)cc1OCC(=O)O :: 9.8
O=C(O)COc1ccc(C(=O)CNC(=O)c2cc3c(s2)CCCNC3)cc1OCC(=O)O :: 8.7
O=C(O)COc1ccc(C(=O)CNC(=O)c2cc3c(s2)CNCC3)cc1OCC(=O)O :: 1.4
O=C(O)COc1ccc(C(=O)CNC(=O)c2cc3c(s2)CCNC3)nc1 :: 100
O=C(O)COc1ccc(C(=O)CNC(=O)CCC2CCNCC2)cc1OCC(=O)O :: 42
O=C(O)COc1ccc(C(=O)CNC(=O)c2cc3c(s2)CCNCC3)cc1OCC(=O)O :: 6
O=C(O)COc1ccc(C(=O)CNC(=O)c2cc3c(s2)CCNC3)cc1 :: 31

We now examine a further compound.
Give IC50 for the following compound: O=C(O)COc1ccc(C(=O)CNC(=O)c2sc3c(c2Cc2ccccc2)CNCC3)cc1OCC(=O)O
62
